FYI, the data here is from patent US10576096B2.

assay: in vivo; settings: NOD/SCID, mouse, iv
measuredQuantity: MTD at 5 injections, 1x every other day

Provide reported MTD at 5 injections, 1x every other day for each item, in the same order as listed.
1. Cc1cc(=O)[nH]c2c1C(=O)c1c(C)cc(=O)n(CC(C)C)c1C2=O [Compound 87]
2. CCc1cc(=O)n(C)c2c1C(=O)c1c(C)cc(=O)[nH]c1C2=O [Compound 107]
3. Cc1cc(=O)[nH]c2c1C(=O)c1c(C)cc(=O)n(CCC(C)(C)C)c1C2=O [Compound 9-251]
4. CCCn1c2c(c(C)cc1=O)C(=O)c1c(C)cc(=O)[nH]c1C2=O [Compound 10-41]

Output line:
1. ~16 mg/kg
2. 8 mg/kg
3. 20 mg/kg
4. 7 mg/kg
